test system: CDK6/D3 (Homo sapiens, UniProt Q00534)
Sequence (Q00534 whole entry): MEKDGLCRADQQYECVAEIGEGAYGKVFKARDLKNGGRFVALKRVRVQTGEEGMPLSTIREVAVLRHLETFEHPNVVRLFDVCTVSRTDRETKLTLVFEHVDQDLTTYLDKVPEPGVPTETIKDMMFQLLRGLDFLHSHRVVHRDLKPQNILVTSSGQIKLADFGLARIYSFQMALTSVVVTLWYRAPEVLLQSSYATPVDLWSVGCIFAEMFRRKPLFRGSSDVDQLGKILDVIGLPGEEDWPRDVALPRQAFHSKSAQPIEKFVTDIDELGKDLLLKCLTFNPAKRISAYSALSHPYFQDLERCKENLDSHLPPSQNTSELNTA
Sequence (P30281 whole entry partner): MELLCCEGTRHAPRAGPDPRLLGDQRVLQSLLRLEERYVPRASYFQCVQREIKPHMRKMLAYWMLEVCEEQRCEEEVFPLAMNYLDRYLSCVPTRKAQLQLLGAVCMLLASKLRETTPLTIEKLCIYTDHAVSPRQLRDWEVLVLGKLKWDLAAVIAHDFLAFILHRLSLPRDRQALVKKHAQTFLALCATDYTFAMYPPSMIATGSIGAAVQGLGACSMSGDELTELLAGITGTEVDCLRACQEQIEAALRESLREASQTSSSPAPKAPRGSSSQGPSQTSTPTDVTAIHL
protocol details: ADP Glo Kinase assay CDK6/D3
Assay type: biochemical
applied conditions: CDK6D3; compound at 10 μM; read-out: residual activity (%) at 10 μM CDK6D3
measured quantity: remaining activity at 10 µM (%)

>>> df
                              sample_smiles  observed_measurement
0  Cc1cnc(N[C@H]2CC[C@H](N)CC2)nc1-c1cnc2ccc(C(F)(F)F)cn12                    58
1  N[C@H]1CC[C@H](Nc2ncc(Cl)c(-c3cnc4ccc(NCc5ccc(F)cc5)cn34)n2)CC1                    55
2  Cc1cnc(N[C@H]2CC[C@H](N)CC2)nc1-c1cnc2ccc(NCc3ccc(F)cc3)cn12                    36
3  Cc1cnc(N[C@H]2CC[C@H](O)CC2)nc1-c1cnc2ccc(Nc3cccnc3)cn12                    71
4  Cc1cnc(N[C@H]2CC[C@H](NC(C)C)CC2)nc1-c1cnc2ccc(Nc3cncnc3)cn12                    47
5  Cc1cnc(N[C@H]2CC[C@H](N)CC2)nc1-c1cnc2cc(Nc3cccnc3)ccn12                     2
6  N[C@H]1CC[C@H](Nc2ncc(F)c(-c3cnc4ccc(-c5ncccc5F)cn34)n2)CC1                    15
7  N[C@H]1CC[C@H](Nc2ncc(Cl)c(-c3cnc4ccc(-c5ccc(N6CCNCC6)nc5)cn34)n2)CC1                    12

* * *

test system: CDK4/D1 (Homo sapiens, UniProt P11802)
Sequence (P11802 whole entry): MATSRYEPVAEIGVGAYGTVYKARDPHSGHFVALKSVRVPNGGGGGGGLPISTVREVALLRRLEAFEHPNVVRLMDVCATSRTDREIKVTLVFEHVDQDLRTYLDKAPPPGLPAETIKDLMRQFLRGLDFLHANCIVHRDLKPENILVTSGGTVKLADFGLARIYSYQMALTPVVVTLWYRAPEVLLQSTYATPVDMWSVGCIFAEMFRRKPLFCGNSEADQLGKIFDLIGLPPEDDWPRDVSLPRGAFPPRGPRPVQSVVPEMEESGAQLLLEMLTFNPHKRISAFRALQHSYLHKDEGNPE
Sequence (P24385 whole entry partner): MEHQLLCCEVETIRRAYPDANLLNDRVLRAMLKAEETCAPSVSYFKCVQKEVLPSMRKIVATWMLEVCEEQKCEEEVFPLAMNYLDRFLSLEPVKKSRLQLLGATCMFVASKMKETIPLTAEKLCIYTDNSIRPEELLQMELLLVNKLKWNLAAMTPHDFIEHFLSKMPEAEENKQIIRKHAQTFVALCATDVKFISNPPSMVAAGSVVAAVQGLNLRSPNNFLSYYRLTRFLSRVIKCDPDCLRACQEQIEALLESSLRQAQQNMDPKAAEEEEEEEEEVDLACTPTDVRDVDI
protocol details: ADP Glo Kinase assay CDK4/D1
Format: biochemical
applied conditions: CDK4D1; compound at 10 μM; read-out: residual activity (%) at 10 μM CDK4D1
Description: Eurofins Pharma Discovery or Reaction Biology Corporation Kinase Profiler services were used to measure inhibition of CDKs and other kinases by radiometric assay. Inhibition of CDK4/D1, CDK6/D3 and CDK9/T1 were also determined in-house using ADP Glo Kinase assays (Promega Corporation, Madison, USA). […] Luminescence was measured using an EnVision Multilabel plate reader (PerkinElmer, Buckinghamshire, UK). […]
measured quantity: remaining activity at 10 µM (%)

>>> df
                                   compound            measured_quantity  observed_measurement
0  Cc1noc(C)c1-c1ccc2ncc(-c3nc(N[C@H]4CC[C@H](N)CC4)ncc3Cl)n2c1 [Compound 83]  remaining activity at 10 µM                    27
1  Cc1cnc(N[C@H]2CC[C@H](N)CC2)nc1-c1cnc2ccc(-c3cncnc3)cn12 [Compound 39]  remaining activity at 10 µM                    36
2  CNC(=O)N[C@H]1CC[C@H](Nc2ncc(C)c(-c3cnc4ccc(-c5ccccc5)cn34)n2)CC1 [Compound 169]  remaining activity at 10 µM                    81
3  Cc1cnc(NC2CCC(F)(F)CC2)nc1-c1cnc2ccc(-c3ccccc3)cn12 [Compound 155]  remaining activity at 10 µM                    96

* * *

test system: CDKs and other kinases (Homo sapiens, UniProt P50613)
Construct: other: CDK7H; residual activity (%) at 10 μM CDK7H; compound at 10 μM
Sequence (P50613 whole entry): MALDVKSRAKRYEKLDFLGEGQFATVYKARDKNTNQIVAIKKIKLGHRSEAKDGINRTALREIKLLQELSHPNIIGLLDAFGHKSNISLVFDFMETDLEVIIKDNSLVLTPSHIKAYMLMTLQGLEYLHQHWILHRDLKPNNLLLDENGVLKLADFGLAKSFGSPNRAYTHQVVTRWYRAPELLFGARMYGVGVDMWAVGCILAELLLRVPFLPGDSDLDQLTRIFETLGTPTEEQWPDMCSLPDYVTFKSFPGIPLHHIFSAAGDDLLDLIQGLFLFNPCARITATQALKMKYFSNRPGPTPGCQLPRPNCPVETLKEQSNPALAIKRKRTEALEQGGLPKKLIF
protocol details: Radiometric kinase assay (Eurofins Pharma Discovery or Reaction Biology Corporation Kinase Profiler)
Assay type: biochemical
applied conditions: CDK7H; compound at 10 μM; read-out: residual activity (%) at 10 μM CDK7H
Hi all, reminder that labels come from remaining activity at 10 µM, split as low value (below 8%), medium value (8% to below 40%), high value (40% or more)

>>> df
                               sample_smiles  assigned_class
 0  Cc1cnc(N[C@H]2CC[C@H](N)CC2)nc1-c1cnc2cc(-c3cccnc3)ccn12       low value
 1  Cc1cnc(N[C@H]2CC[C@@H](N)CC2)nc1-c1cnc2ccc(Nc3cncnc3)cn12      high value
 2  Cc1cnc(N[C@H]2CC[C@H](N)CC2)nc1-c1cnc2ccc(Nc3ccccc3)cn12    medium value
 3  N[C@H]1CC[C@H](Nc2ncc(F)c(-c3cnc4ccc(Nc5cncnc5)cn34)n2)CC1       low value
 4  Cc1cnc(N[C@H]2CC[C@H](N)CC2)nc1-c1cnc2cc(F)c(-c3ccccc3)cn12    medium value
 5  Fc1cnc(N[C@H]2CC[C@H](Nc3ccccn3)CC2)nc1-c1cnc2ccc(-c3ccccc3)cn12       low value
 6  Cc1cnc(N[C@H]2CC[C@H](N)CC2)nc1-c1cnc2ccc(NC(=O)c3ccc(F)cc3)cn12      high value
 7  Cc1cnc(N[C@H]2CC[C@H](N)CC2)nc1-c1cnc2cc(Nc3cncnc3)ccn12    medium value
 8  Cc1cnc(N[C@H]2CC[C@H](C)CC2)nc1-c1cnc2ccc(-c3ccccc3)cn12      high value
 9  N[C@H]1CC[C@H](Nc2ncc(F)c(-c3cnc4cc(-c5ccccc5)ccn34)n2)CC1       low value
10  CS(=O)(=O)N1CCC(Nc2ncc(F)c(-c3cnc4ccc(-c5ccccc5)cn34)n2)CC1      high value
11  Cc1cnc(NC2CCC(F)(F)CC2)nc1-c1cnc2ccccn12      high value
12  N[C@H]1CC[C@H](Nc2ncc(F)c(-c3cnc4ccc(-c5ncccc5F)cn34)n2)CC1       low value
13  Cc1cnc(N[C@H]2CC[C@H](N3CCC3)CC2)nc1-c1cnc2ccc(-c3ccccc3)cn12    medium value
14  C[C@]12C[C@]3(C)C[C@](O)(C1)C[C@](Nc1ncc(F)c(-c4cnc5ccc(Nc6cncnc6)cn45)n1)(C2)C3      high value
15  Cc1cnc(N[C@H]2CC[C@H](N)CC2)nc1-c1cnc2ccc(Oc3cncnc3)cn12      high value
16  Cc1cnc(N[C@H]2CC[C@H](N)CC2)nc1-c1cnc2ccc(Nc3ccncc3)cn12    medium value
17  N[C@H]1CC[C@H](Nc2ncc(F)c(-c3cnc4cc(Nc5cccnc5)ccn34)n2)CC1       low value
18  COc1cnc(N[C@H]2CC[C@H](N)CC2)nc1-c1cnc2ccc(-c3ccccc3)cn12    medium value
19  CS(=O)(=O)N[C@H]1CC[C@H](Nc2ncc(F)c(-c3cnc4ccccn34)n2)CC1      high value
20  N[C@H]1CC[C@H](Nc2ncc(F)c(-c3cnc4ccc(Nc5cccnc5)cn34)n2)CC1       low value
21  Cc1cnc(N[C@H]2CC[C@H](NCC(N)=O)CC2)nc1-c1cnc2ccc(Nc3cncnc3)cn12      high value
22  N[C@H]1CC[C@H](Nc2ncc(F)c(-c3cnc4ccc(NC(=O)Cc5ccccc5)cn34)n2)CC1       low value
23  O[C@H]1CC[C@H](Nc2ncc(Cl)c(-c3cnc4ccc(-c5ccc(F)cc5)cn34)n2)CC1    medium value
24  N[C@H]1CC[C@H](Nc2ncc(Cl)c(-c3cnc4ccc(-c5ccc(N6CCNCC6)nc5)cn34)n2)CC1    medium value
25  CNC(=O)N[C@H]1CC[C@H](Nc2ncc(C)c(-c3cnc4ccc(-c5ccccc5)cn34)n2)CC1    medium value
26  Fc1cnc(N[C@H]2CC[C@H](NC3CCOCC3)CC2)nc1-c1cnc2ccccn12       low value
27  Cc1cnc(N[C@H]2CC[C@H](N3CCC3)CC2)nc1-c1cnc2ccc(Nc3cncnc3)cn12    medium value
28  CCS(=O)(=O)N1CCC(Nc2ncc(F)c(-c3cnc4ccc(-c5ccccc5)cn34)n2)CC1       low value
29  C[C@]12C[C@]3(C)C[C@](O)(C1)C[C@](Nc1ncc(F)c(-c4cnc5ccc(-c6ccccc6)cn45)n1)(C2)C3      high value

* * *

test system: CDKs and other kinases (Homo sapiens, UniProt P06493)
Construct: other: CDK1B; residual activity (%) at 10 μM CDK1B; compound at 10 μM
Sequence (P06493 whole entry): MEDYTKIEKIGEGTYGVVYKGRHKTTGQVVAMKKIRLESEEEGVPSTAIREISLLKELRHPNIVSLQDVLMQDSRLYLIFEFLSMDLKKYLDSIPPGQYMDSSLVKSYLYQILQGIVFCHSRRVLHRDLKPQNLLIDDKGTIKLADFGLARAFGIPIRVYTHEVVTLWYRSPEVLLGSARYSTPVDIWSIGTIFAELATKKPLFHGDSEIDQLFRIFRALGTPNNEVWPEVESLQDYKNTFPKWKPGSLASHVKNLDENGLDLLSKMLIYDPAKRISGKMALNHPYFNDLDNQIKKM
protocol details: Radiometric kinase assay (Eurofins Pharma Discovery or Reaction Biology Corporation Kinase Profiler)
Format: biochemical
applied conditions: CDK1B; compound at 10 μM; read-out: residual activity (%) at 10 μM CDK1B
remaining activity at 10 µM less than 20% is Criterion met; remaining activity at 10 µM greater than or equal to 20% is Criterion not met.

>>> print(df.to_string())
                               sample_smiles     assigned_class
 0  N[C@H]1CC[C@H](Nc2ncc(F)c(-c3cnc4ccc(-c5ccc(CN6CCOCC6)cc5)cn34)n2)CC1      Criterion met
 1  N[C@H]1CC[C@H](Nc2ncc(F)c(-c3cnc4ccc(Nc5cccnc5)cn34)n2)CC1      Criterion met
 2  CCN[C@H]1CC[C@H](Nc2ncc(C)c(-c3cnc4ccc(-c5ccccc5)cn34)n2)CC1  Criterion not met
 3  N[C@H]1CC[C@H](Nc2ncc(F)c(-c3cnc4ccc(-c5ncccc5F)cn34)n2)CC1      Criterion met
 4  Cc1cnc(N[C@H]2CC[C@H](C(=O)O)CC2)nc1-c1cnc2ccc(Nc3cncnc3)cn12  Criterion not met
 5  N[C@H]1CC[C@H](Nc2ncc(F)c(-c3cnc4ccc(NC(=O)Cc5ccccc5)cn34)n2)CC1      Criterion met
 6  N[C@H]1CC[C@H](Nc2ncc(F)c(-c3cnc4ccc(-c5ccc(C(=O)N6CCNCC6)cc5)cn34)n2)CC1      Criterion met
 7  COc1ccc(-c2ccc3ncc(-c4nc(N[C@H]5CC[C@H](N)CC5)ncc4C)n3c2)cn1  Criterion not met
 8  CN(C)S(=O)(=O)c1ccc(-c2ccc3ncc(-c4nc(N[C@H]5CC[C@H](N)CC5)ncc4F)n3c2)cc1      Criterion met
 9  Cc1cnc(N[C@H]2CC[C@@H](N)CC2)nc1-c1cnc2ccc(Nc3cccnc3)cn12  Criterion not met
10  N[C@H]1CC[C@H](Nc2ncc(F)c(-c3cnc4cc(Nc5cccnc5)ccn34)n2)CC1      Criterion met
11  COCCN[C@H]1CC[C@H](Nc2ncc(C)c(-c3cnc4ccc(-c5ccccc5)cn34)n2)CC1  Criterion not met
12  Cc1cnc(N[C@H]2CC[C@H](N)CC2)nc1-c1cnc2ccc(-c3ccc(N4CCOCC4)nc3)cn12  Criterion not met
13  Cc1cnc(N2CCC3(CCNC3=O)CC2)nc1-c1cnc2ccccn12  Criterion not met
14  Cc1cnc(N[C@H]2CC[C@H](N)CC2)nc1-c1cnc2ccc(-c3ccoc3)cn12      Criterion met
15  Cc1cnc(N[C@H]2CC[C@H](O)CC2)nc1-c1cnc2ccc(Nc3cccnc3)cn12      Criterion met
